Tested on: HCT-116 colon
Procedure details: NCI-60 one-dose screen, 48 h
Experimental context: 10 µM unless noted
This is part of a sample that, as a whole, favours compounds with a hit. Of some 83,000 tested, about 20% had one in any assay. The source made the active and inactive calls. Rule for the calls: active = growth percent below 10; inactive = the rest.
Answer with one of the outcomes given here: 1.0 (active), 0.0 (inactive)

Here are 3 molecules together with their reported answers.
>  <Molecule>
COc1ccc2c3c(c4ccccc4cc13)C(=O)N(CCN(C)CCN)C2=O

>  <Discrete label>
1.0

$$$$
>  <Molecule>
Brc1ccc2c(c1)c(-c1nc(-c3c[nH]c4ncccc34)cs1)cn2CCCN1CCCCC1

>  <Discrete label>
1.0

$$$$
>  <Molecule>
COC(=O)[C@]12CC[C@@H](C)[C@H](C)[C@@H]1C1=CC[C@@H]3[C@@]4(C)CC(=O)[C@H](OC(=O)c5ccco5)[C@@]5(C)COC(=C45)C[C@@]3(C)[C@]1(C)CC2

>  <Discrete label>
0.0

$$$$

# next molecule below
Ask: I would be grateful if you could indicate the recorded call for COc1ccc(-c2nc3c(c(C)nn3-c3ccc(F)cc3)c(=O)[nH]2)cc1 .
Reply: 0.0

###

Some compounds, each annotated with its measured growth.
Tested on: MALME-3M melanoma
Procedure details: NCI-60 one-dose screen, 48 h (100 = growth as untreated, 0 = no growth, -100 = all killed)
Experimental context: 10 µM unless noted
This is part of a sample that, as a whole, favours compounds with a hit. Of some 83,000 tested, about 20% had one in any assay.
Numeric only. Scale: %

Please review the following examples before continuing.
>  <Compound>
CCc1ccccc1NC(=O)c1sc2nc3c(cc2c1N)CCCC3

>  <growth / %>
55.7

$$$$
>  <Compound>
Nc1c2c(nc3ccc(Cl)cc13)CC(c1ccc(O)cc1)CC2=O (centres undefined)

>  <growth / %>
52.6

$$$$
>  <Compound>
CC(=O)OCCCCCCn1c2ccccc2c2c3c(c4c5ccccc5n(C)c4c21)C(=O)N(O)C3=O

>  <growth / %>
115

$$$$
>  <Compound>
CC(=O)c1c(C)[nH]c(-c2nc3ccc(N4CCN(C)CC4)cc3[nH]2)c1-c1ccc(OCC2CCOCC2)cc1

>  <growth / %>
20.7

$$$$
>  <Compound>
COc1cccc(-c2nn(-c3ccccc3)cc2-c2ccnc(NCCCNS(=O)(=O)c3ccc(Br)cc3)c2)c1

>  <growth / %>
71.9

$$$$
>  <Compound>
O=C1OC(c2ccc(Cl)c(Cl)c2)=C/C1=C/c1cccc([N+](=O)[O-])c1

>  <growth / %>
101

$$$$
>  <Compound>
CCN1CCN(C(=O)[C@]23CCC(C)(C)C[C@H]2C2=CC[C@@H]4[C@@]5(C)CC/C(=N/O)C(C)(C)[C@@H]5CC[C@@]4(C)[C@]2(C)CC3)CC1

>  <growth / %>
62.9

$$$$
>  <Compound>
COc1ccc2c(c1)c1nc3cc(C)c(C)cc3nc1n2CCN(C)C

>  <growth / %>
-30.8

$$$$

# value of growth, MALME-3M melanoma, item COc1cc(-c2cc(-c3nc4ccc(F)cc4[nH]3)[nH]n2)cc(OC)c1OC = 7.29

###

Tested on: ACHN renal
Procedure details: NCI-60 one-dose screen, 48 h
Experimental context: 10 µM unless noted
This is part of a sample that, as a whole, favours compounds with a hit. Of some 83,000 tested, about 20% had one in any assay. Activity calls are given as the source filed them. How the source made its calls: active means growth percent below 10; inactive means the rest.
Answer with one of the outcomes given here: yes for active, no for inactive

Here are 5 molecules together with their reported answers.
>  <Molecule>
COC(=O)[C@]12CC[C@@H](C)[C@H](C)[C@@H]1C1=CC[C@@H]3[C@@]4(C)C=C(O)C(=O)C(C)=C4CC[C@@]3(C)[C@]1(C)CC2

>  <Subject of test>
ACHN renal

>  <Discrete label>
no

$$$$
>  <Molecule>
COc1ccc2c(c1)C(Br)=C(CCO)C2c1ccccc1 (centres undefined)

>  <Subject of test>
ACHN renal

>  <Discrete label>
yes

$$$$
>  <Molecule>
N#Cc1c(-c2ccco2)nc2c(c(-c3ccccc3)nn2-c2ccccc2)c1-c1ccc(O)cc1

>  <Subject of test>
ACHN renal

>  <Discrete label>
no

$$$$
>  <Molecule>
COc1cc(C(=O)/C=C/c2cc(-c3ccc4c(c3)OCO4)n[nH]2)cc(OC)c1OC

>  <Subject of test>
ACHN renal

>  <Discrete label>
no

$$$$
>  <Molecule>
COc1ccc(O)c(-c2cc(-c3ccc(Cl)cc3)c(C#N)c(=O)[nH]2)c1

>  <Subject of test>
ACHN renal

>  <Discrete label>
no

$$$$

Ask: I would be grateful if you could indicate the recorded call for Cc1cccc(C)c1NC(=O)CSC(=S)N1CCCCC1 .
Reply: no

Ask: I would be grateful if you could indicate the recorded call for CCN1CCN(C(=O)[C@@]2(C)CC[C@]3(C)CC[C@]4(C)C(=CC(=O)[C@@H]5[C@@]6(C)CC[C@H](OC7C[C@@H](O)[C@@H](O)C(C)O7)C(C)(C)[C@@H]6CC[C@]54C)[C@@H]3C2)CC1 (some centres undefined) .
Reply: no

Ask: I would be grateful if you could indicate the recorded call for C=C(C)[C@@H]1CC[C@]2(C(=O)N3CCN(CC)CC3)CC[C@]3(C)[C@H](CC[C@@H]4[C@@](C)(CCC(=O)N5CCN(CC)CC5)[C@H](C(=C)C)CC[C@]43C)[C@@H]12 .
Reply: yes

Ask: I would be grateful if you could indicate the recorded call for COc1ccc(NC(=O)c2ccoc2COc2ccccc2)cc1 .
Reply: no
